# measured on: Glutamate NMDA receptor; GRIN1/GRIN2A (Homo sapiens, UniProt Q05586+Q12879)
# Sequence (Q12879 whole entry, other chains not shown): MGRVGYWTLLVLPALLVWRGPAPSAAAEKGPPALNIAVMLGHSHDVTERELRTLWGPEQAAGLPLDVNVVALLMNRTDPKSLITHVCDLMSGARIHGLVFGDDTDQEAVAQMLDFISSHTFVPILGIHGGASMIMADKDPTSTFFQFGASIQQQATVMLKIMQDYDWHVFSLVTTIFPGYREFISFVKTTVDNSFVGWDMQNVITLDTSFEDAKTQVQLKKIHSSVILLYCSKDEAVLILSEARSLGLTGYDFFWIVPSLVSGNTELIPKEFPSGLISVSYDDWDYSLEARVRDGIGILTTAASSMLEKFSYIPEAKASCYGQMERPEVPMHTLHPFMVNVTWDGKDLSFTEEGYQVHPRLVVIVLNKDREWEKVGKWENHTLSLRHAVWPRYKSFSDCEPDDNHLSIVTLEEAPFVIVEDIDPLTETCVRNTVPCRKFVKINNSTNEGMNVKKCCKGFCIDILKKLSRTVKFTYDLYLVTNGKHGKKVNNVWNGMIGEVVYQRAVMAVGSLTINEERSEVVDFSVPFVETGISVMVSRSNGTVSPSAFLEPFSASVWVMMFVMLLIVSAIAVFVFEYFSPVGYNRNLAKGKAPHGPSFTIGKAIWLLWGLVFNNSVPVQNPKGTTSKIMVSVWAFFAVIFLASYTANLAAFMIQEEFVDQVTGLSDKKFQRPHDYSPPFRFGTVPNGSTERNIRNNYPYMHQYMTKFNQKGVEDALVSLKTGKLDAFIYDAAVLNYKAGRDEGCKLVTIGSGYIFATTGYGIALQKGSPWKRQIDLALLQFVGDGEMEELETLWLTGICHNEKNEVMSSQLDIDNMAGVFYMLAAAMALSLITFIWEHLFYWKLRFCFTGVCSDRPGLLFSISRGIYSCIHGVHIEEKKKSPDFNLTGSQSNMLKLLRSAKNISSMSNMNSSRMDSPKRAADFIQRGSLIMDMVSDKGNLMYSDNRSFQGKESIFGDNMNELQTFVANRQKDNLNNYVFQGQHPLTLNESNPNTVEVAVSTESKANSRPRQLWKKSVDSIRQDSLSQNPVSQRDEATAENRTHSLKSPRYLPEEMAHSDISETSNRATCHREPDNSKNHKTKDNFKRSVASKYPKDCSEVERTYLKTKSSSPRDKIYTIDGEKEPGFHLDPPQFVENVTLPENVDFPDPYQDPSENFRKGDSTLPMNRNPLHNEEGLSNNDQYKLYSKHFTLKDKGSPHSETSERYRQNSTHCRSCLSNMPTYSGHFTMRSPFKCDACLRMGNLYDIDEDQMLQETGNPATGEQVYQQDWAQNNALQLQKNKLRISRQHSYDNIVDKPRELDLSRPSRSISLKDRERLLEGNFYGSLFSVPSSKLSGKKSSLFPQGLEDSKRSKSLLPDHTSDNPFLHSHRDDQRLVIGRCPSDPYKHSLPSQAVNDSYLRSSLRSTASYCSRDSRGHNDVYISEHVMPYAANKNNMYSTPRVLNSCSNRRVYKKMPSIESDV
# protocol details: Positive allosteric modulation of GluN1/GluN2A NMDAR (unknown origin) expressed in Dox-inducible cells measured every 5 mins by BD calcium indicator dye based-fluorescence analysis in presence of glutamate/glycine
readout name: EC50 (nM)

Some compounds with recorded EC50:
>  <compound>
CCN(Cc1cc(=O)n2c(C#N)c(C)sc2n1)c1ccc(F)cc1

>  <measured on>
Glutamate NMDA receptor; GRIN1/GRIN2A (Homo sapiens, UniProt Q05586+Q12879)

>  <measured number>
129

$$$$
>  <compound>
CCN(Cc1cc(=O)n2c(CCCO)c(C)sc2n1)c1ccc(F)cc1

>  <measured on>
Glutamate NMDA receptor; GRIN1/GRIN2A (Homo sapiens, UniProt Q05586+Q12879)

>  <measured number>
183

$$$$
>  <compound>
CCN(Cc1cc(=O)n2c(-c3cccnc3)c(C)sc2n1)c1ccc(F)cc1

>  <measured on>
Glutamate NMDA receptor; GRIN1/GRIN2A (Homo sapiens, UniProt Q05586+Q12879)

>  <measured number>
168

$$$$
>  <compound>
Cc1sc2nc(Cn3nc(C(F)(F)F)cc3Cl)cc(=O)n2c1[C@@H]1C[C@H]1C#N

>  <measured on>
Glutamate NMDA receptor; GRIN1/GRIN2A (Homo sapiens, UniProt Q05586+Q12879)

>  <measured number>
29.5

$$$$
>  <compound>
CCNC(=O)c1c(C)sc2nc(Cn3nc(C(F)(F)F)cc3OCC(C)C)cc(=O)n12

>  <measured on>
Glutamate NMDA receptor; GRIN1/GRIN2A (Homo sapiens, UniProt Q05586+Q12879)

>  <measured number>
57100

$$$$

A. Cc1sc2nc(Cn3nc(C(F)(F)F)cc3Cl)cc(=O)n2c1[C@@H]1C[C@H]1CO
B. CCNC(=O)c1c(C)sc2nc(CN(CC)c3ccc(F)cn3)cc(=O)n12
Ask: Kindly identify the item with the lower EC50 figure among these two: A and B Answer = label.
Reply: A
(A: 17.7 nM, B: 1700 nM)

I. CCN(Cc1cc(=O)n2c([C@@H]3C[C@H]3CO)c(C)sc2n1)c1ccc(F)cc1
II. CCNC(=O)c1c(C)sc2nc(Cn3nc(C(F)(F)F)cc3C)cc(=O)n12
III. CCNC(=O)c1c(C)sc2nc(Cc3cccc(C#N)c3)cc(=O)n12
IV. CCN(Cc1cc(=O)n2c(C(C)(C)O)c(C)sc2n1)c1ccc(F)cc1
V. CCN(Cc1cc(=O)n2c(CCO)c(C)sc2n1)c1ccc(F)cc1
Ask: Hey, quick one: sort these by EC50, largest value first please. Returns: the labels listed in the requested order.
Reply: III, II, V, IV, I
(III: 62200 nM, II: 4900 nM, V: 159 nM, IV: 63 nM, I: 24.4 nM)

I. N#C[C@@H]1C[C@H]1c1c(C(F)(F)F)sc2nc(Cn3nc(C(F)(F)F)cc3Cl)cc(=O)n12
II. CCNC(=O)c1c(C)sc2nc(CN(CC)c3ccc(F)cc3)cc(=O)n12
Ask: Of the two listed items, which has the higher EC50? First: I Second: II Answer = label.
Reply: II
